test system: galium (catchweed bedstraw, Galium aparine); assay: Test C preemergence; type: in vivo; settings: Galium, pre-emergence, 336 h; 62 g ai/ha, preemergence; scale 0 to 100; read-out: Plant response rating, Galium
measurement name: pest or weed control at 62 g/ha

[[record]]
test_smiles = "Clc1cnc(Oc2cccc(Cl)c2Oc2ncc(Br)cn2)nc1"
test_target = "galium (catchweed bedstraw, Galium aparine)"
measurement_name = "pest or weed control at 62 g/ha"
measured_result = "98%"

[[record]]
test_smiles = "N#Cc1cccc(Oc2ncc(Cl)cn2)c1Oc1ncc(Cl)cn1"
test_target = "galium (catchweed bedstraw, Galium aparine)"
measurement_name = "pest or weed control at 62 g/ha"
measured_result = "90%"

[[record]]
test_smiles = "Fc1cccc(Oc2ncc(C(F)(F)F)cn2)c1Oc1ncc(Cl)cn1"
test_target = "galium (catchweed bedstraw, Galium aparine)"
measurement_name = "pest or weed control at 62 g/ha"
measured_result = "95%"

[[record]]
test_smiles = "N#Cc1cccc(Oc2ncc(Cl)cn2)c1Oc1ncc(C(F)(F)F)cn1"
test_target = "galium (catchweed bedstraw, Galium aparine)"
measurement_name = "pest or weed control at 62 g/ha"
measured_result = "100%"

[[record]]
test_smiles = "FC(F)c1cccc(Oc2ncc(Cl)cn2)c1Oc1ncc(Cl)cn1"
test_target = "galium (catchweed bedstraw, Galium aparine)"
measurement_name = "pest or weed control at 62 g/ha"
measured_result = "95%"

[[record]]
test_smiles = "N#Cc1cccc(Oc2ncc(Br)cn2)c1Oc1ncc(Cl)cn1"
test_target = "galium (catchweed bedstraw, Galium aparine)"
measurement_name = "pest or weed control at 62 g/ha"
measured_result = "100%"

[[record]]
test_smiles = "N#Cc1cccc(Oc2ncc(Cl)cn2)c1Oc1ncc(Br)cn1"
test_target = "galium (catchweed bedstraw, Galium aparine)"
measurement_name = "pest or weed control at 62 g/ha"
measured_result = "30%"


====

tested on: oilseed rape (Brassica napus); experiment: Test C postemergence; assay type: in vivo; details: Brassica napus, post-emergence; Postemergence, 62 g ai/ha, scale 0 to 100; read-out: Plant response rating, Oilseed Rape
Description: […]
Catalogue of molecules with associated plant injury at 62 g/ha
measurement name: plant injury at 62 g/ha (%)

[[record]]
molecule = "Fc1cccc(Oc2ncc(Cl)cn2)c1Oc1ncc(C(F)(F)F)cn1 [Compound 43]"
measurement_name = "plant injury at 62 g/ha"
measured_result = 65

[[record]]
molecule = "N#Cc1cccc(Oc2ncc(Cl)cn2)c1Oc1ccc(Cl)cc1 [Compound 36]"
measurement_name = "plant injury at 62 g/ha"
measured_result = 90

[[record]]
molecule = "N#Cc1cccc(Oc2ncc(C(F)(F)F)cn2)c1Oc1ncc(Cl)cn1 [Compound 39]"
measurement_name = "plant injury at 62 g/ha"
measured_result = 40

[[record]]
molecule = "Clc1cnc(Oc2cccc(Cl)c2Oc2ncc(Br)cn2)nc1 [Compound 17]"
measurement_name = "plant injury at 62 g/ha"
measured_result = 50

[[record]]
molecule = "N#Cc1cccc(Oc2ncc(Cl)cn2)c1Oc1ncc(C(F)(F)F)cn1 [Compound 38]"
measurement_name = "plant injury at 62 g/ha"
measured_result = 25

[[record]]
molecule = "Fc1ccc(F)c(Oc2ncc(Cl)cn2)c1Oc1ncc(Cl)cn1 [Compound 34]"
measurement_name = "plant injury at 62 g/ha"
measured_result = 70

[[record]]
molecule = "Fc1cccc(Oc2ncc(Cl)cn2)c1Oc1ncc(Cl)cn1 [Compound 21]"
measurement_name = "plant injury at 62 g/ha"
measured_result = 60

[[record]]
molecule = "Fc1cnc(Oc2c(F)cccc2Oc2ncc(Cl)cn2)nc1 [Compound 23]"
measurement_name = "plant injury at 62 g/ha"
measured_result = 30

